# SYSTEM TESTED: GlyT2 L198A mutant (Homo sapiens, UniProt Q9Y345, L198A)
# REPORTED CONDITIONS: read-out: Glycine EC50; L198A (TM1)
MEASURED PROPERTY: pEC50
Note: pEC50 values are expressed as the negative base-10 logarithm of concentration in M.

Query: Name the reported pEC50 value associated with the compound NCC(=O)O
Reply: 4.55

###

# SYSTEM TESTED: GlyT2 Y430F mutant (Homo sapiens, UniProt Q9Y345, Y430F)
# EXPERIMENT DESCRIPTION: Inhibitor washout time course (reversibility)
# Assay type: cell-based
# Parameters: expressed in transfected cells; host or cells: Xenopus laevis oocytes injected with mutant RNA (pOTV vector)
# REPORTED CONDITIONS: washout after 4 min IC50 concentration
Listed next: entries and their corresponding Recovery at 30 Min.
Supply the numeric figure in %, leaving out any unit text.

The cases that follow already have their Recovery at 30 Min on record.
[
  {
    "MOLECULE SMILES": "CCCCCCCC/C=C\\CCCCCCCC(=O)O[C@H](CC(=O)[O-])C[N+](C)(C)C",
    "Recovery at 30 Min, %": 24.7
  },
  {
    "MOLECULE SMILES": "CCCCCCCC/C=C\\CCCCCCCC(=O)N[C@@H](CC(C)C)C(=O)O",
    "Recovery at 30 Min, %": 26.6
  }
]

Query: Name the reported Recovery at 30 Min value associated with the compound CCCCCCCC/C=C\CCCCCCCC(=O)N[C@@H](CCCCN)C(=O)O
Reply: 68.5

###

# SYSTEM TESTED: WT GlyT2 (Homo sapiens)
# EXPERIMENT DESCRIPTION: Inhibitor concentration–responses on glycine transport currents, two-electrode voltage clamp (control and MβCD-treated oocytes)
# Format: cell-based
# Parameters: expressed in transfected cells; host or cells: Xenopus laevis oocytes injected with in vitro transcribed RNA (pOTV vector)
# REPORTED CONDITIONS: WT GlyT2 in Xenopus laevis oocytes; glycine EC50 co-applied; Table S10; listed as OLLys
MEASURED PROPERTY: pIC50
Note: pIC50 values are expressed as the negative base-10 logarithm of concentration in M.

Query: Name the reported pIC50 value associated with the compound CCCCCCCC/C=C\CCCCCCCC(=O)N[C@@H](CCCCN)C(=O)O
Reply: 6.66

###

# SYSTEM TESTED: GlyT2 T512A mutant (Homo sapiens, UniProt Q9Y345, T512A)
# EXPERIMENT DESCRIPTION: Inhibitor washout time course (reversibility)
# Format: cell-based
# Design: expressed in transfected cells; host or cells: Xenopus laevis oocytes injected with mutant RNA (pOTV vector)
# REPORTED CONDITIONS: T512A; washout after 4 min IC50 concentration
MEASURED PROPERTY: Recovery at 30 Min

The cases that follow already have their Recovery at 30 Min on record.
[
  {
    "COMPOUND": "CCCCCCCC/C=C\\CCCCCCCC(=O)N[C@@H](CC(C)C)C(=O)O [Oleoyl-L-Leucine, oleoyl-L-leucine]",
    "SYSTEM TESTED": "GlyT2 T512A mutant (Homo sapiens, UniProt Q9Y345, T512A)",
    "Recovery at 30 Min": "76.2 ± 4.1 %"
  },
  {
    "COMPOUND": "CCCCCCCC/C=C\\CCCCCCCC(=O)O[C@H](CC(=O)[O-])C[N+](C)(C)C [Oleoyl-L-Carnitine, oleoyl-L-carnitine]",
    "SYSTEM TESTED": "GlyT2 T512A mutant (Homo sapiens, UniProt Q9Y345, T512A)",
    "Recovery at 30 Min": "79.4%"
  }
]

From here, focus on the item given below.
Query: Return Recovery at 30 Min measured with GlyT2 T512A mutant (Homo sapiens, UniProt Q9Y345, T512A) given this compound: CCCCCCCC/C=C\CCCCCCCC(=O)N[C@@H](CCCCN)C(=O)O [Oleoyl-L-Lysine, oleoyl-L-lysine]
Reply: 63.5 ± 2.0%

###

# SYSTEM TESTED: GlyT2 T512A mutant (Homo sapiens, UniProt Q9Y345, T512A)
# Sequence (Q9Y345 1-797 T512A): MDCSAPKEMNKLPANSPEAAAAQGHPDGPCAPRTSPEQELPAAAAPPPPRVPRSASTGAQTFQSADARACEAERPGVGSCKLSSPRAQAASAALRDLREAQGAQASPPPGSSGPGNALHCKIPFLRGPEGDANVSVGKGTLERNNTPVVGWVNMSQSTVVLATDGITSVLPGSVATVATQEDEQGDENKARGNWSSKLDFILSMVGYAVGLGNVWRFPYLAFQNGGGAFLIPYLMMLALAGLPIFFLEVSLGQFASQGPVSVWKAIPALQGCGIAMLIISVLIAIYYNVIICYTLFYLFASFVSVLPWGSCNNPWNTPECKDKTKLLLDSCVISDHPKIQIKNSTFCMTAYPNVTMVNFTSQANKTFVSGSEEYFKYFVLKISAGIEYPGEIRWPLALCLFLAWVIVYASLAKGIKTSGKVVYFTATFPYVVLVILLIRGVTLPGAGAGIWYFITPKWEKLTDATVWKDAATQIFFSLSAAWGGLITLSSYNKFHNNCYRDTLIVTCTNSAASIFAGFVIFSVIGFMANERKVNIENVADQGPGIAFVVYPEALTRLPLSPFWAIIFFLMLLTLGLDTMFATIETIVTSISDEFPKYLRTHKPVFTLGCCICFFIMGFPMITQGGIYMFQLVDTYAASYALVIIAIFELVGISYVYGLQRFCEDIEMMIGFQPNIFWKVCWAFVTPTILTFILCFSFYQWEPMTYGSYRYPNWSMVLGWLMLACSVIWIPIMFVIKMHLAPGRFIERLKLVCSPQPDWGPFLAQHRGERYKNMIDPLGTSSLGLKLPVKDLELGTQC
# REPORTED CONDITIONS: read-out: Glycine EC50; T512A (TM7)
MEASURED PROPERTY: pEC50
Note: pEC50 values are expressed as the negative base-10 logarithm of concentration in M.

Query: Name the reported pEC50 value associated with the compound NCC(=O)O
Reply: 4.05

###

# SYSTEM TESTED: GlyT2 F515W mutant (Homo sapiens, UniProt Q9Y345, F515W)
# EXPERIMENT DESCRIPTION: Inhibitor washout time course (reversibility)
# Type: cell-based
# Parameters: expressed in transfected cells; host or cells: Xenopus laevis oocytes injected with mutant RNA (pOTV vector)
# REPORTED CONDITIONS: F515W; washout after 4 min IC50 concentration
Listed next: entries and their corresponding Recovery at 30 Min.
Supply the numeric figure in %, leaving out any unit text.

The cases that follow already have their Recovery at 30 Min on record.
[
  {
    "MOLECULE SMILES": "CCCCCCCC/C=C\\CCCCCCCC(=O)N[C@@H](CCCCN)C(=O)O",
    "Recovery at 30 Min / %": 57.8
  },
  {
    "MOLECULE SMILES": "CCCCCCCC/C=C\\CCCCCCCC(=O)O[C@H](CC(=O)[O-])C[N+](C)(C)C",
    "Recovery at 30 Min / %": 60.1
  }
]

From here, focus on the item given below.
Query: Name the reported Recovery at 30 Min value associated with the molecule CCCCCCCC/C=C\CCCCCCCC(=O)N[C@@H](CC(C)C)C(=O)O
Reply: 70.1

###

# SYSTEM TESTED: WT GlyT2 (Homo sapiens, UniProt Q9Y345)
# EXPERIMENT DESCRIPTION: Inhibitor concentration–responses on glycine transport currents, two-electrode voltage clamp (control and MβCD-treated oocytes)
# Type: cell-based
# Parameters: expressed in transfected cells; host or cells: Xenopus laevis oocytes injected with in vitro transcribed RNA (pOTV vector)
# REPORTED CONDITIONS: MβCD-treated vs control oocytes
MEASURED PROPERTY: Reduction of potency after cholesterol depletion (fold)
Supply the numeric figure in fold, leaving out any unit text.

[
  {
    "MOLECULE SMILES": "CCCCCCCC/C=C\\CCCCCCCC(=O)N[C@@H](CC(C)C)C(=O)O",
    "UNIT TEXT": "fold",
    "ENDPOINT VALUE": 2.4
  }
]

From here, focus on the item given below.
Query: Name the reported Reduction of potency after cholesterol depletion value associated with the compound CCCCCCCC/C=C\CCCCCCCC(=O)N[C@@H](CCCCN)C(=O)O
Reply: 2.3

###

# SYSTEM TESTED: GlyT2 F515W mutant (Homo sapiens, UniProt Q9Y345, F515W)
# EXPERIMENT DESCRIPTION: Inhibitor concentration–responses on glycine transport currents, two-electrode voltage clamp
# REPORTED CONDITIONS: F515W GlyT2 in Xenopus laevis oocytes
MEASURED PROPERTY: pIC50
Note: pIC50 values are expressed as the negative base-10 logarithm of concentration in M.

[
  {
    "MOLECULE": "CCCCCCCC/C=C\\CCCCCCCC(=O)N[C@@H](CC(C)C)C(=O)O [Oleoyl-L-Leucine, oleoyl-L-leucine]",
    "MEASURED PROPERTY": "pIC50",
    "ENDPOINT VALUE": 6.40
  },
  {
    "MOLECULE": "CCCCCCCC/C=C\\CCCCCCCC(=O)N[C@@H](Cc1c[nH]c2ccccc12)C(=O)O [Oleoyl-L-Tryptophan, oleoyl-L-tryptophan]",
    "MEASURED PROPERTY": "pIC50",
    "ENDPOINT VALUE": 6.89
  }
]

From here, focus on the item given below.
Query: Name the reported pIC50 value associated with the molecule CCCCCCCC/C=C\CCCCCCCC(=O)N[C@@H](CCCCN)C(=O)O [Oleoyl-L-Lysine, oleoyl-L-lysine]
Reply: 6.16
